FYI, the data here is from paper PMC6863848.

Listing of entries alongside the reported tissue uptake at 24 h.
assay: Ex vivo biodistribution and tumor targeting; conditions: female, BALB/c nu/nu, mouse, muscle, iv, 45 pmol per mouse, total radioactivity, Muscle uptake, PC-3-xenografted BALB/c nu/nu mice, iv 25 kBq/45 pmol, 24 h pi, 4 mice per data point
Your answer is read as %ID/g, so omit the unit and give the number.

Some solved cases for reference:
COMPOUND: CC(C)C[C@H](NC(=O)C[C@H](O)[C@H](CC(C)C)NC(=O)[C@H](Cc1c[nH]cn1)NC(=O)CNC(=O)[C@@H](NC(=O)[C@H](C)NC(=O)[C@H](Cc1c[nH]c2ccccc12)NC(=O)[C@H](CCC(N)=O)NC(=O)[C@@H](Cc1ccccc1)NC(=O)COCCOCCNC(=O)CN1CCN(CC(=O)O)CCN(CC(=O)O)CC1)C(C)C)C(N)=O
EXPERIMENTAL_VALUE: 0.011
--
COMPOUND: CC(C)C[C@H](NC(=O)C[C@H](O)[C@H](CC(C)C)NC(=O)[C@H](Cc1c[nH]cn1)NC(=O)CNC(=O)[C@@H](NC(=O)[C@H](C)NC(=O)[C@H](Cc1c[nH]c2ccccc12)NC(=O)[C@H](CCC(N)=O)NC(=O)[C@@H](Cc1ccccc1)NC(=O)COCCOCCNC(=O)CN1CCN(CC(=O)O)CCN(CC(=O)O)CCN(CC(=O)O)CC1)C(C)C)C(N)=O
EXPERIMENTAL_VALUE: 0.02
--
COMPOUND: CC(C)C[C@H](NC(=O)C[C@H](O)[C@H](CC(C)C)NC(=O)[C@H](Cc1c[nH]cn1)NC(=O)CNC(=O)[C@@H](NC(=O)[C@H](C)NC(=O)[C@H](Cc1c[nH]c2ccccc12)NC(=O)[C@H](CCC(N)=O)NC(=O)[C@@H](Cc1ccccc1)NC(=O)COCCOCCNC(=O)CCC(C(=O)O)N1CCN(CC(=O)O)CCN(CC(=O)O)CCN(CC(=O)O)CC1)C(C)C)C(N)=O (stereo partly shown)
EXPERIMENTAL_VALUE: 0.007

Query: Recorded tissue uptake at 24 h of CC(C)C[C@H](NC(=O)C[C@H](O)[C@H](CC(C)C)NC(=O)[C@H](Cc1c[nH]cn1)NC(=O)CNC(=O)[C@@H](NC(=O)[C@H](C)NC(=O)[C@H](Cc1c[nH]c2ccccc12)NC(=O)[C@H](CCC(N)=O)NC(=O)[C@@H](Cc1ccccc1)NC(=O)COCCOCCNC(=O)CCC(C(=O)O)N1CCN(CC(=O)O)CCN(CC(=O)O)CC1)C(C)C)C(N)=O (stereo partly shown) , please.
Response: 0.006
